# Tested on: CCRF-CEM leukemia
# testDescription: NCI-60 one-dose screen, 48 h
# protocolConditions: 10 µM unless noted
The panel holds about 83,000 compounds, 20% with a hit somewhere; the sample as a whole holds those more often. Active and inactive are the calls of the source. How the source made its calls: active means growth percent below 10; inactive means the rest.
A correct response names exactly one class from active, inactive

So what was the verdict on O=C(CN1C=NC2C(N3CCOCC3)=NC=NC21)c1cccc2ccccc12 (stereo unspecified) in this test?
inactive

Status in this test for CN1C(=O)N(C)C2Nn3c(s/c(=C4\C(=O)N(CCc5ccccc5)c5ccccc54)c3=O)=NC21 (stereo unspecified) ?
inactive

Kindly provide the recorded test outcome for the following compound: Cn1c(C(=O)c2cccc3ccccc23)nc2ccccc21
active

I would be grateful if you could indicate the recorded call for O=C(/C=C/c1ccc(F)cc1)c1ccc(Nc2nc(NCCO)nc(Nc3ccc(Cl)cc3)n2)cc1 .
inactive

Lab log entry: COc1ccc(Cn2cc(Cn3cc(C=C4C(=O)NC(=O)NC4=O)c4ccccc43)nn2)cc1 — outcome as called in the assay?
inactive

Lab log entry: COc1ccc(C(=O)Nc2ccc3nc(N4CCCCC4)cc(C)c3c2)cc1OC — outcome as called in the assay?
inactive

Status in this test for COc1ccc(CSc2nnc(SCC(=O)Nc3ccc(Cl)cc3)s2)cc1 ?
inactive

Check the results log: what was the call for COc1ccc(-n2c(C(O)c3ccccc3)nn(CN3CCOCC3)c2=S)cc1 (stereo unspecified) ?
inactive

Hi, do you know how COc1ccc2[nH]c(O)c(N=NC(=O)c3oc4ccccc4c3C)c2c1 came out in this test?
inactive

Outcome? CCN(CCO)CCNc1ccc(C)c2sc3cc(Cl)ccc3c(=O)c12
inactive

Each compound tested received a call. Report the one for O=C(Nc1nc2c(s1)CCc1c-2c(Br)n(Cc2ccccc2)c1Br)c1ccccc1 .
inactive

// param item: CCCCN1CCN(c2ccc3nc(-c4ccc5nc(-c6ccc(OC)c(OC)c6)[nH]c5c4)[nH]c3c2)CC1 ; yields the recorded call
active

For this compound, state the assay outcome: COc1cc(CNC(=O)c2ccsc2Nc2ccnc(C(F)(F)F)c2)ccc1O
inactive

Recorded test call requested for NC1(N2SC(S)=C3CCCC=C32)CCCCC1
inactive

How did this test come out for CC(=O)c1ccc(Nc2nc(NCCO)nc(Nc3ccc(Cl)cc3)n2)cc1 ?
inactive

Could you check what this test reported for CCn1c(-c2nonc2Nc2ccc(OC)cc2)nc2ccccc21 ?
inactive

Kindly provide the recorded test outcome for the following compound: COc1ccc(-c2nnc(COc3ccc(C(=O)/C=C/c4ccco4)cc3)o2)cc1
inactive

Lab log entry: Cc1ccc(OCCCCCCNCCO)c(C)c1 — outcome as called in the assay?
active

So what was the verdict on COc1ccc(/C=C2\NC(=O)NC2=O)cc1O in this test?
inactive

Test call for this compound, please: O=C(c1nc2ccccc2[nH]1)C1C(c2cccc([N+](=O)[O-])c2)C2CC3CCCCC3N2[C@@]12C(=O)Nc1cc(Cl)ccc12 (stereo partly specified)
inactive

Tell me the assay call for COc1ccc(-c2nocc2-c2cccs2)cc1 please.
inactive

* * *

# Test system: NCI-H522 lung
# testDescription: NCI-60 one-dose screen, 48 h (100 = growth as untreated, 0 = no growth, -100 = all killed)
# protocolConditions: 10 µM unless noted
This is part of a sample that, as a whole, favours compounds with a hit. Of some 83,000 tested, about 20% had one in any assay.
endpointName: growth (%)
// return numeric value only (unit: %, not printed)

Report its growth with NCI-H522 lung as the test system: NC(=O)CSc1nc(-c2ccc(F)cc2)cc(-c2ccco2)n1
94.5

State recorded growth with NCI-H522 lung, entry CCOC(=O)c1c(C=O)nc2ccccc2c1/C=C/c1ccc(Cl)cc1 , no comment.
78.8

Provide growth, tested on NCI-H522 lung, for COc1ccccc1C(=O)/C=C/c1ccccc1 .
81.8

Please report the measured growth for O=C(Nc1ccc(N2CCNCC2)cc1)c1[nH]ncc1Nc1ncnc2sc3c(c12)CCC3 tested on NCI-H522 lung.
-50.3

Report its growth with NCI-H522 lung as the test system: O=CCCCC(O)C=O (stereo unspecified)
107

Return reported growth for target or system NCI-H522 lung, item Cc1cc(OC(=O)c2ccc([N+](=O)[O-])cc2)nc2[nH]c(=O)sc12 .
96.8

* * *

# System: TK-10 renal
# testDescription: NCI-60 one-dose screen, 48 h (100 = growth as untreated, 0 = no growth, -100 = all killed)
# protocolConditions: 10 µM unless noted
The panel holds about 83,000 compounds, 20% with a hit somewhere; the sample as a whole holds those more often.
endpointName: growth (%)
Report the value in % with no unit label.

Return growth for the following molecule: Cc1ccccc1CNC(=O)C1CN(c2ccc(Cl)cc2)N(c2ccc(Cl)cc2)C1=O (stereo not drawn)
91.3

Given the molecule N[C@@H](CC/[N+]([O-])=N/O)C(=O)O , write its reported growth.
104

Query growth for CCCCCCC(O)(c1ccc(F)cc1)C(CN1CCOCC1)c1ccccc1 (stereo not drawn)
34.2

Identify the reported growth for the following entry. COc1ccc(C2Nc3ncnc(N)c3N=C3c4ccccc4C(=O)C32)cc1 (stereo not drawn)
123

Let me know recorded growth for O=C(Nc1ccccc1O)c1ccc(-c2ccc(Cl)cc2Cl)o1 , thanks.
102

Indicate its recorded growth; the molecule in question is Fc1ccc(Oc2ccc(Nc3ncnc4onc(-c5ccccc5)c34)cc2)cc1
102

For the molecule O=C(Nc1ccc(Br)cc1F)c1cc(I)ccc1O , report growth.
12.9

Give the reported value of growth for this record: CCOC(=O)C1=C(C)c2ccc(OC)c(OC)c2C1
87.2

* * *

# Test system: SNB-75 CNS
# testDescription: NCI-60 one-dose screen, 48 h
# protocolConditions: 10 µM unless noted
# Protocol: Growth inhibition of the SNB-75 human tumor cell line is measured as a screen for anti-cancer activity. Cells are grown in 96 well plates and exposed to the test compound for 48 hours. Compounds are tested at a single concentration, which is 10^-5 M for most compounds. The reported endpoint is percent growth (GI% or GIPRCNT), where numbers from 0 - 100% represent growth inhibition, and numbers from -100% - 0 represent cell death. For example, a value of 40 represents 60% growth inhibition. […]
Compounds without any hit were thinned out: in the full panel of roughly 83,000, 20% have a hit. Activity calls are given as the source filed them. Rule for the calls: active = growth percent below 10; inactive = the rest.
Returns: one label drawn from true (1) = active, false (0) = inactive

What is the recorded call for this molecule in the test? COc1ccc(OC)c(N(CCN2C(=O)c3ccccc3C2=O)C(=O)CCl)c1
false (0)

Outcome logged for Clc1ccc(-c2nnc(COc3ccc(C4=NNC(c5ccco5)C4)cc3)o2)cc1 (stereo not given) in this assay:
false (0)

Any idea what this test logged for O=C(NC1CCN(Cc2ccccc2)CC1)c1cc2nc(-c3ccc(Cl)s3)cc(C(F)(F)F)n2n1 ?
false (0)

Tell me the recorded outcome of this test for COC(=O)/C(CCC=C(C)C)=C1\[C@@H](OC(C)=O)C[C@@]2(C)[C@H]1C[C@@H](O)[C@H]1[C@@]3(C)CC[C@H](NCCO)[C@@H](C)[C@@H]3CC[C@@]12C .
false (0)

Hi, do you know how O=C1NC(=O)C(=Cc2cn(Cc3cn(Cc4ccc(Cl)cc4Cl)nn3)c3ccccc23)C(=O)N1 came out in this test?
false (0)

Could you check what this test reported for CCOC(=O)c1sc(-c2ccc(OS(=O)(=O)C[C@]34CCC(CC3=O)C4(C)C)c(C=O)c2)nc1C ?
true (1)

Hi, do you know how COc1ccc(CN2CCCC(C(=O)c3ccc(C(F)(F)F)cc3)C2)c(O)c1 (stereo not given) came out in this test?
true (1)

Fill in: this test's call for Nc1nc(-c2cnccn2)nn1-c1nc2ccccc2s1 is ___
false (0)

Which outcome was entered for the molecule CCC1=C[C@]2(C3CC(=O)N(c4ccccc4)C3=O)CC(C(C)(C)C)C[C@@H]2[C@@H]2C(=O)N(c3ccccc3)C(=O)[C@H]12 (stereo not given in full) in this test?
false (0)

Write down the call the test reported for this molecule. Item: CCN(CC)CCNC(=O)C(Cl)=C1C(Cl)=C(Cl)C(Cl)=C1Cl
false (0)

In this assay, the call recorded for CCOC(=O)c1cc2c(n1Cc1ccccc1OC)-c1oncc1CCC2 was what?
true (1)

What was the test verdict on Clc1ncccc1Nc1ccc2nnc(-c3ccncc3)n2n1 ?
false (0)

Test call, this molecule: CC(=O)SC1CC(=O)C=C2CCC3C4CCC(=O)OC4(C)CCC3C21C (stereo not given)
false (0)

In this assay, the call recorded for COc1ccc(C)c2sc(N(Cc3cccnc3)C(=O)c3ccc(C#N)cc3)nc12 was what?
false (0)

Which outcome did this test record for the molecule COC(=O)/C(CCC=C(C)C)=C1\[C@@H](OC(C)=O)C[C@@]2(C)[C@H]1C[C@@H](O)[C@H]1[C@@]3(C)CC[C@H](NCCCNCCCCNCCCN)[C@@H](C)[C@@H]3CC[C@@]12C ?
false (0)

Please state the recorded outcome for this molecule: O=C(Cn1cc(COc2ncnc3c2cnn3-c2ccccc2)nn1)Nc1ccccn1
false (0)

State the result this test recorded for COC(=O)/C(CCC=C(C)C)=C1\[C@@H](OC(C)=O)C[C@@]2(C)[C@H]1CC(=O)N[C@H]1[C@@]3(C)CCNC(=O)[C@@H](C)[C@@H]3CC[C@@]12C .
false (0)

Lab log entry: COC(=O)c1c2c(c(C)[n+]([O-])c1C)C(=O)C=C(NCc1ccc(F)c(F)c1)C2=O — outcome as called in the assay?
true (1)

// outcome(item) with item = COc1ccc(OC)c(NC(=O)/C(C#N)=C/c2ccco2)c1
false (0)

Would you mind telling me which call this test gave CC(C)c1ccc(S(=O)(=O)NC(=O)NC2CCCC2)cc1 ?
false (0)

Tell me the assay call for Clc1ccc(Nc2nnc(-c3ccc4c(c3)OCO4)o2)cc1 please.
false (0)

What is the recorded call for this molecule in the test? O=C(N/N=C/c1ccccc1Cl)C(=O)Nc1cccc(C(F)(F)F)c1
false (0)

What call does the record list for COc1cc(NC(=O)CCSc2nc3ccccc3c(=O)n2CCc2ccccn2)cc(OC)c1OC ?
true (1)

Tell me the recorded outcome of this test for COc1c(B(O)O)cccc1-c1nc2ccc3n[nH]c(F)c3c2c2c1CCCC2 .
true (1)

I would be grateful if you could indicate the recorded call for O=c1c(-c2nc3ccccc3[nH]2)cc2ccccc2n1Cc1cn(Cc2ccc(F)cc2)nn1 .
true (1)

// return assay outcome for COc1ccc(Cn2c(Br)c3c(c2-c2cc(OC)c(OC)c(OC)c2)CCc2sc(NC(C)=O)nc2-3)cc1
false (0)

How was COc1ccccc1N1CCN(C(CNS(=O)(=O)c2ccc(Cl)cc2)c2cccnc2)CC1 (stereo not given) classified in this test?
false (0)

Would you mind telling me which call this test gave CC1=CCC(OC(=O)C(C)(C)CCC(O)(C(=O)OC2(C(C)C)CCC3(C)OC3C2)C(C)C)(C(C)C)CC1 (stereo not given) ?
true (1)

Write down the call the test reported for this molecule. Item: O=c1oc2ccc(I)cc2c(=O)n1-c1ccc(I)cc1F
true (1)

Kindly provide the recorded test outcome for the following molecule: CCN1CCN(c2cc(C)c3cc(NC(=O)c4ccc(OC)c(OC)c4)ccc3n2)CC1
false (0)
